- SYSTEM_UNDER_TEST: T1, human BACE1 ECD
- T1 construct: analyte of the Octet assay (200 nM) and enzyme of the first short substrate assay; also called human BACE1 extracellular domain
- ASSAY_PROCEDURE: Octet, pH 5.0;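 note: antibodies captured on anti-human capture sensor tips, dissociation monitored in PBS with BSA buffer, kinetics fitted with a one-to-one binding model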
MEASUREMENT_KIND: Kd

>>> reading("6270 (antibody, V domains shown, anti-BACE1 IgG) VH: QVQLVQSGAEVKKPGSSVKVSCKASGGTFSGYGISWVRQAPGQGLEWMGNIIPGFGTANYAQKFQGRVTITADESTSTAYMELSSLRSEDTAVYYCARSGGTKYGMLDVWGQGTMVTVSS VL: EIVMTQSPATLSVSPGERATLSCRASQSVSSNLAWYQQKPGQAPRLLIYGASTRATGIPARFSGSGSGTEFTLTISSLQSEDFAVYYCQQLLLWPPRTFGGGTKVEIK")
"< 0.29 nM"
>>> reading("6280 (antibody, V domains shown, anti-BACE1 IgG) VH: QLQLQESGPGLVKPSETLSLTCTVSGGSTSSSSYYWGWIRQPPGKGLEWIGSIYRSGSTYYNPSFKSRVTISVDTSKNQFSLKLSSVTAADTAVYYCARVGHGISYFDLWGRGTLVTVSS VL: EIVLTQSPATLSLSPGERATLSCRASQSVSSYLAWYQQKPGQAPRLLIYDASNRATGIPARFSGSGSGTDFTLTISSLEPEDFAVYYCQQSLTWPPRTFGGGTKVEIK")
"0.31 nM"
>>> reading("6300 (antibody, V domains shown, anti-BACE1 IgG) VH: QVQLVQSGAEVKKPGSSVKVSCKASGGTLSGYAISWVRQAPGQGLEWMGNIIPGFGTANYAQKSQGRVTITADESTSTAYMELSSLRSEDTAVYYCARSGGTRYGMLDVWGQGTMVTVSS VL: EIVLTQSPATLSVSPGERATLSCRASQSVGSNLAWYQQKPGQAPRLLIYGASTRATGIPARFSGSGSGTEFTLTISSLQSEDFAVYYCQQSFLWPPRTFGGGTKVEIK")
"< 0.34 nM"
>>> reading("6291 (antibody, V domains shown, anti-BACE1 IgG) VH: QLQLQESGPGLVKPSETLSLTCTVSGGSISSSSYYWGWIRQPPGKGLEWIGMIYYSGSTWYNPSLKSRVTISVDTSKNQFSLKLSSVTAADTAVYYCARVGHGVSYFDLWGRGTLVTVSS VL: EIVLTQSPATLSLSPGERATLSCRASQSVSSYLAWYQQKPGQAPRLLIYGASKRATGIPARFSGSGSGTDFTLTISSLEPEDFAVYYCQQVYTWPPRTFGGGTKVEIK")
"< 0.26 nM"
>>> reading("5988 (antibody, V domains shown, anti-BACE1 IgG) VH: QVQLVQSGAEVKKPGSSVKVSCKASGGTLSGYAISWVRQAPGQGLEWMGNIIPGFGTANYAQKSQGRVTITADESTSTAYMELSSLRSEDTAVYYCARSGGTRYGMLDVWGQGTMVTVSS VL: GIVMTQSPATLSVSPGERATLSCRASQSVGSNLAWYQQKPGQAPRLLIYGASTRATGIPARFSGSGSGTEFTLTISSLQSEDFAVYYCQQLYTWPPRTFGGGTKVEIK")
"< 0.25 nM"
>>> reading("6299 (antibody, V domains shown, anti-BACE1 IgG) VH: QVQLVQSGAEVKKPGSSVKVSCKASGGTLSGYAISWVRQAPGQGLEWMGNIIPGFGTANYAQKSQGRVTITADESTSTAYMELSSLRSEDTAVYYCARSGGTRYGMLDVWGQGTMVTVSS VL: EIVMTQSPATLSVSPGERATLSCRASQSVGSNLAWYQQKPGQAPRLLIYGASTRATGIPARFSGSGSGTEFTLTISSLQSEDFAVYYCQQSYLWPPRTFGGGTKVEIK")
"< 0.28 nM"
>>> reading("anti-BACE1 antibody 6266 (antibody, V domains shown, Fully human antibody) VH: EVQLVQSGAEVKKPGSSVKVSCKASGGTLSGYGVSWVRQAPGQGLEWMGNIIPGFGTANYAQKFQGRVTITADESTSTAYMELSSLRSEDTAVYYCARSGGTKYGMLDVWGQGTMVTVSS VL: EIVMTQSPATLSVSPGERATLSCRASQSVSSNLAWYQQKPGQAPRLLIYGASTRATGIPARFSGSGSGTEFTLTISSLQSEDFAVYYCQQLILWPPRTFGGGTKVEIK")
"< 0.24 nM"
